system-under-test: Dual specificity protein kinase CLK3 (Homo sapiens, UniProt P49761)
Sequence (P49761 whole entry): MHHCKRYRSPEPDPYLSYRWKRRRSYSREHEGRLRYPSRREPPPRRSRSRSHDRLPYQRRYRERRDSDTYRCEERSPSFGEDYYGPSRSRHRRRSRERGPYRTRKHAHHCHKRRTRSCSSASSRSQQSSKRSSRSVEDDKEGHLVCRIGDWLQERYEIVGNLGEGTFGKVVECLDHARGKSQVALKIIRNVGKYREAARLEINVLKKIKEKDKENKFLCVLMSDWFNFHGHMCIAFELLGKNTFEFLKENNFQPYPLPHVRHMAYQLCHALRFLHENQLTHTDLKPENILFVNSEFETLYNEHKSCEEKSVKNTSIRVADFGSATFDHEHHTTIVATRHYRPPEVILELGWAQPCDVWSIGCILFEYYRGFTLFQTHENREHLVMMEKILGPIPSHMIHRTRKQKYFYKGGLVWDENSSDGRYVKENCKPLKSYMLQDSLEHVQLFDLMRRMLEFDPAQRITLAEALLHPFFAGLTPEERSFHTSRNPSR
run-description: Inhibition of recombinant CLK3 (unknown origin) using Ser/Thr 18 peptide as substrate incubated for 1 hr in presence of ATP by FRET assay
pEC50: −log10 of the molar value.
observed-property: pEC50

a = Cc1n[nH]c2ccc(-c3cncc(N[C@H](CO)Cc4cccc(C(F)(F)F)c4)n3)cc12
b = O=C(N[C@H]1C[C@@H]1c1ccccc1)c1n[nH]c2ccc(-c3cncc(CN4CCCCC4)c3)cc12
// compare measured pEC50, left a , right b , return larger Kindly give the label for the entry you pick.
b
(b: 6.14, a: 5.40)
